The values you see were collected from ChEMBL document CHEMBL4396879.

Each entry below carries its recorded Ratio Ki.
biological target: Muscarinic acetylcholine receptors; M1 & M2 (Homo sapiens) (UniProt P11229+P08172); assay: Selectivity ratio of Ki for human muscarinic M1 receptor expressed in CHO-K9 cells to Ki for human muscarinic M2 receptor expressed in CHO-K9 cells; assay type: cell-based
The response must contain the number and no unit.

CC(=O)N[C@@H](C)C(=O)N[C@@H](C)C(=O)NCCN1CCN(CCCCC2CCN(CC(=O)N3c4ccccc4NC(=O)c4ccccc43)CC2)CC1 7.5
CC(=O)N[C@@H](Cc1ccc(O)cc1)C(=O)N[C@@H](CCCCN)C(=O)NCCN1CCN(CCCCC2CCN(CC(=O)N3c4ccccc4NC(=O)c4ccccc43)CC2)CC1 32

Problem: What measured Ratio Ki is associated with CC(=O)N[C@@H](CCC(N)=O)C(=O)N[C@@H](C)C(=O)N[C@@H](CC(C)C)C(=O)NCCCCC1CCN(CC(=O)N2c3ccccc3NC(=O)c3ccccc32)CC1 on Muscarinic acetylcholine receptors; M1 & M2 (Homo sapiens) (UniProt P11229+P08172)?
Solution: 2.2
